Please provide measured GI50 for the entries that follow.
# Test system: RPMI-8226 leukemia
# ASSAY SUMMARY: NCI tumour cell line growth inhibition, 48 h

Need GI50 of C[C@@]12CCC[C@@](C)(C(=O)O)C1CC[C@]13C=C(CO)[C@](O)(CCC12)C3 (stereo partly drawn) , thanks.
> 100 µM

Need GI50 of Nc1nn(C(=O)Nc2ccc(Cc3ccccc3)cc2)c2ccc(Cl)cc12 , thanks.
5.21 µM

Need GI50 of CCCCCCCCCCCCCCCCCC(=O)[O][Sn]([CH2]CCC)([CH2]CCC)[CH2]CCC , thanks.
0.139 µM

###

# Tested on: KM12 colon
# ASSAY SUMMARY: NCI tumour cell line growth inhibition, 48 h
OBSERVABLE: TGI

Need TGI of CN(C)C(=O)c1nnsc1NN=O , thanks.
> 100 µM

Need TGI of Clc1cccc(Cn2cc(Cc3cn(Cc4cccc(Cl)c4)c4ccccc34)c3ccccc32)c1 , thanks.
> 100 µM

Need TGI of NC(=O)c1ncn(C2OC(CO)C(O)C2O)n1 (stereo not given) , thanks.
> 100 µM

Need TGI of C[CH2][Sn]1([CH2]C)[O]C2C(O)OC(CO)C(O)C2[O]1 (stereo not given) , thanks.
> 100 µM

Need TGI of CCOC(=O)N/N=C/C1=NN(C(=O)OCC)S(=O)C1C (stereo not given) , thanks.
> 100 µM

###

# System: HOP-92 NSCLC
# ASSAY SUMMARY: NCI tumour cell line growth inhibition, 48 h
OBSERVABLE: TGI

Need TGI of OCC1OC(n2ccc3cnccc32)CC1O (stereo unspecified) , thanks.
> 100 µM

Need TGI of O=C1CCCCC1C1(O)C(=O)Nc2cc(F)ccc21 (stereo unspecified) , thanks.
> 100 µM

Need TGI of Nc1nc(N)nc(-c2cnc3ccccc3c2)n1 , thanks.
> 100 µM

Need TGI of C/C(=C/CNc1ncnc2c1ncn2CCC(=O)O)CO , thanks.
> 100 µM

Need TGI of N#Cc1cc2c(n(C3OC(CO)C(O)C(O)C3O)c1=S)CCCCC2 (stereo unspecified) , thanks.
> 100 µM

Need TGI of NC(=O)Cc1ccccc1Oc1nccc(-c2c(-c3ccc(F)cc3)ncn2C2CCNCC2)n1 , thanks.
> 25 µM

###

Please provide measured TGI for the entries that follow.
# Test system: COLO 205 colon
# ASSAY SUMMARY: NCI tumour cell line growth inhibition, 48 h

Give TGI (COLO 205 colon) of the following compound: CN(C)S(=O)(=O)n1ccnc1
> 100 µM

Give TGI (COLO 205 colon) of the following compound: CCOC(=O)N/N=C/C1=NN(C(=O)OCC)S(=O)C1C (stereo unspecified)
> 100 µM

Give TGI (COLO 205 colon) of the following compound: COc1ccc(Cc2cc(OC)c(OC)c(OC)c2)cc1O
> 57.1 µM

Give TGI (COLO 205 colon) of the following compound: CN(C)C(=O)c1nnsc1NN=O
> 100 µM

Give TGI (COLO 205 colon) of the following compound: C=CC1(c2ccc(Cl)c(Cl)c2)OCCO1
> 100 µM

Give TGI (COLO 205 colon) of the following compound: CC(=O)O[C@@]12[C@@H]3O[C@@]4(O)C[C@]5(C)[C@H]6C[C@@](C(C)C)(O[C@H]5c5ccoc5)O[C@H]1[C@]6(C4)O[C@]2(O)C(C)=CC3(C)C
> 100 µM

###

Please provide measured TGI for the entries that follow.
# Tested on: SNB-75 CNS
# ASSAY SUMMARY: NCI tumour cell line growth inhibition, 48 h

Need TGI of O=S1(=O)COc2ccccc2-c2ncncc21 , thanks.
> 100 µM

Need TGI of COC(=O)C1=C(O)C(C(=O)OC)[C@]2(O)[C@H](C(=O)OC)[C@H]1C[C@@H](c1ccccc1OC)[C@H]2C(=O)OC (some centres not stated) , thanks.
> 71.3 µM

Need TGI of Clc1ccc(-c2nc(-c3c[nH]c4ncccc34)cs2)cc1 , thanks.
> 100 µM

Need TGI of COc1ccc(Cc2cc(OC)c(OC)c(OC)c2)cc1O , thanks.
> 100 µM

Need TGI of COc1cccc(C2=NN(C(C)=O)C(c3cc(OC)c(OC)c(OC)c3)C2)c1 (configuration not stated) , thanks.
> 100 µM

Need TGI of CN(C)S(=O)(=O)n1ccnc1 , thanks.
> 100 µM

Need TGI of CC(=O)Oc1ccn2nc(C)c(Cc3c(C)nn4ccc(OC(C)=O)cc34)c2c1 , thanks.
> 100 µM

Need TGI of O=C1OCC2=C1C(c1ccccc1)c1cc3c(cc1N2CCO)CCC3 (configuration not stated) , thanks.
> 25 µM

Need TGI of NC(N)=NS(=O)(=O)c1ccc(Nc2c3ccccc3nc3ccc(C(=O)Nc4ccc(S(N)(=O)=O)cc4)cc23)cc1 , thanks.
> 100 µM

Need TGI of NC(=O)Cc1ccccc1Oc1nccc(-c2c(-c3ccc(F)cc3)ncn2C2CCNCC2)n1 , thanks.
> 25 µM

Need TGI of Cc1cc(=O)[nH]c(CNC(=O)c2cccc3ccccc23)n1 , thanks.
> 100 µM

Need TGI of CCOC(=O)[C@H](Cc1ccccc1)NC(=O)c1nc[nH]c1[N+](=O)[O-] , thanks.
> 100 µM

Need TGI of OCC1C(O)C(O)[C@@H]2SCCN12 (some centres not stated) , thanks.
> 100 µM

Need TGI of CCOc1cc(NC(C)=O)ccc1C(=O)N/N=C/c1ccco1 , thanks.
> 100 µM

Need TGI of COc1ccc(-c2cn3c(nc4ccccc43)c(C)n2)cc1 , thanks.
> 86.1 µM

Need TGI of Cc1ccc(/C=C/C(=O)c2sc(C(N)=S)nc2C)cc1 , thanks.
> 100 µM

Need TGI of CN(C)C(=O)c1nnsc1NN=O , thanks.
> 100 µM

Need TGI of Cn1ccnc1SC(F)(F)c1nc2ccccc2o1 , thanks.
> 100 µM

Need TGI of CCCCN(CCCC)c1cc(C(=O)CCCCCN)c2ccccc2n1 , thanks.
3.21 µM

Need TGI of COc1cccc(N=N/C(=N/NC(=O)c2cc(Cl)ccc2O)c2ccc(N(CCC#N)CCC#N)cc2C)c1 , thanks.
> 100 µM

Need TGI of CCOC(=O)c1ccc(-c2cccs2)n1C , thanks.
> 100 µM

Need TGI of O=[N+]([O-])c1nccn1CCCN=c1c2ccccc2n(O)c2ccccc12 , thanks.
> 100 µM

Need TGI of COc1ccc(Cc2nc3cc(Cl)ccc3o2)cc1 , thanks.
59.1 µM

Need TGI of C[C@]1(O)CC(=O)c2c(c(-c3ccc4cc5c(c(O)c4c3O)C(=O)C[C@@](C)(O)C5)c3cccc(O)c3c2O)C1 , thanks.
19.3 µM

Need TGI of Nc1ccc(-c2nc3cc(F)ccc3s2)cc1Br , thanks.
77.9 µM

Need TGI of CSc1nc(C)cc(N(C)c2ccccc2)n1 , thanks.
94.3 µM

Need TGI of N#Cc1cc(-c2ccccc2)[nH]c1-c1nccc2ccccc12 , thanks.
> 100 µM

Need TGI of CC(Br)C(=O)c1ccc2cc(Br)c3ccccc3c2c1 (configuration not stated) , thanks.
29 µM

Need TGI of O=C(CC(=O)C(=O)CC(=O)OCc1ccccc1)OCc1ccccc1 , thanks.
> 100 µM

Need TGI of CN(C)c1cc2c(cc1Sc1nc3c(N)nccc3n1CCNCC(C)(C)C)OCO2 , thanks.
19.1 µM

Need TGI of CC1=C(C(=O)OCCc2ccc([N+](=O)[O-])cc2)C(c2ccccc2C(F)(F)F)C(C(=O)OC(C)C)=C(C)N1 (configuration not stated) , thanks.
> 100 µM

Need TGI of O=C(O[C@H]1CN[C@H](C#Cc2cc3ncnc(Nc4ccc(Cc5ccccc5)cc4)c3s2)C1)N1CCOCC1 , thanks.
> 19.4 µM

###

# Tested on: COLO 205 colon
# ASSAY SUMMARY: NCI tumour cell line growth inhibition, 48 h
OBSERVABLE: TGI (µM)
Enter your answer as a number in µM; do not include the unit.

Need TGI of O=C(/C=C/c1ccccc1O)c1ccccc1 , thanks.
38

Need TGI of C/C=C1/CN2CCC34C5=CC(=O)C(c6cc7c(cc6OC)N(C)C6=C(C(=O)OC)CC8(CC)CCCN9CCC67C98)=CC5=NC23CCC1C4C(=O)OC (configuration not stated) , thanks.
22.9

Need TGI of CC1=C(C(=O)OCCc2ccc([N+](=O)[O-])cc2)C(c2ccccc2C(F)(F)F)C(C(=O)OC(C)C)=C(C)N1 (configuration not stated) , thanks.
16.3

###

# Test system: ACHN renal
# ASSAY SUMMARY: NCI tumour cell line growth inhibition, 48 h
OBSERVABLE: TGI

Need TGI of NC(CCc1ccccc1)(C(=O)O)c1ccccc1 (stereo not drawn) , thanks.
> 100 µM

Need TGI of Cc1nc2ccc(N=Nc3c(O)ccc4ccccc34)cc2[nH]1 , thanks.
> 57.2 µM

Need TGI of C[C@H]1O[C@@H](O[C@H]2[C@@H](O)C[C@H](O[C@H]3[C@@H](O)C[C@H](O[C@H]4CC[C@]5(C)C6C[C@@H](O)[C@]7(C)[C@@H](C8=CC(=O)OC8)CC[C@]7(O)C6CC[C@@H]5C4)O[C@@H]3C)O[C@@H]2C)C[C@H](O)[C@@H]1O (stereo partly drawn) , thanks.
0.115 µM
